The measured values listed here are drawn from patent US5085739A.

Relative Volatility overview
Experiment: vapor-liquid equilibrium still, n-propanol-water azeotrope with agent
Conditions: n-propanol from water, extractive distn., water as overhead
Returns: the value as a bare number; no unit string appended.

compound="CCOCCOCCOC(C)=O [Diethylene glycol ethyl ether acetate]" reported=1.3
compound="CC(C)CCCCCCCO [Isodecyl alcohol]" reported=1.30

Record COc1ccccc1 [Anisole] . Reported Relative Volatility: 2.0
